Test: PGC1a acetylation increase, cellular AlphaLISA – cell-based, cherry-picked samples, set 6, dose response (AID 720513);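 also: cells made to overexpress flag tagged PGC1a plus GCN5 acetyltransferase by viral infection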
Conditions: U2OS PGC1a acetylation AlphaLISA, overnight, 0 = neutral, -100 = inhibitor control; series mostly up to 19.5 µM
Out of some 2,100 compounds screened, about 480 (23%) were called active. Another 5% or so got no clear call; they are omitted. Only a sample is shown. Results with a measured potency or affinity are listed apart.
MEASUREMENT_KIND: outcome

Worked cases, answers included:
• COc1ccc(S(=O)(=O)N[C@@H]2CC[C@H](CCNC(=O)c3ccccc3F)O[C@H]2CO)cc1 = inactive
• COC(=O)Cn1ccc(-c2ccc(Cl)cc2)c(C#N)c1=O = inactive
• CCCCn1c(SCC(=O)NCc2ccc3c(c2)OCO3)nnc1C(CC)N(C)C (centres undefined) = inactive
• CC(C)(C)NC(=O)c1ccc(Sc2ccccc2)c([N+](=O)[O-])c1 = inactive
• O=[N+]([O-])c1ccc(Oc2cccc(F)c2)c2ccncc12 = inactive

In: What value of measured outcome is listed for Cc1ccc(N2C(=O)N(CC(=O)Nc3ccc(C)cc3[N+](=O)[O-])C(=O)C2C)cc1 (centres undefined) ?
Out: inactive

In: I am curious: what outcome value has been reported for "C[C@@H]1CN([C@@H](C)CO)C(=O)c2ccccc2-c2ccccc2CO[C@@H]1CN(C)C(=O)Nc1cccc(Cl)c1Cl" ?
Out: inactive

In: Would you mind telling me what outcome value was observed for "Oc1c(Cl)cc(CN2CCOCC2)c2cccnc12" ?
Out: inactive

In: Name the reported outcome value associated with the compound "C[C@@H]1CN([C@H](C)CO)C(=O)CCCn2cc(nn2)CO[C@@H]1CN(C)C(=O)Nc1cccc2ccccc12"
Out: inactive

* * *

Assay: PGC1a acetylation increase, cellular AlphaLISA – cell-based, cherry-picked samples, set 6, dose response (AID 720513);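 also: cells made to overexpress flag tagged PGC1a plus GCN5 acetyltransferase by viral infection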
Settings: U2OS PGC1a acetylation AlphaLISA, overnight, 0 = neutral, -100 = inhibitor control; series mostly up to 19.5 µM
The whole screen tested about 2,100 compounds, of which about 480 (23%) were called active. About 5% were inconclusive and are not listed. Not all results are given here. Results with a measured potency or affinity are listed apart.
MEASUREMENT_KIND: outcome

- CCCOc1ccccc1-n1sc2c(c1=S)-c1cc(OC)cc3c1N(C(=O)C3=O)C2(C)C: inactive
- CC(Oc1ccc2c3c(c(=O)oc2c1)CCC3)C(=O)N[C@@H](Cc1ccccc1)C(=O)O (stereo not given in full): inactive
- C[C@@H]1CN([C@@H](C)CO)S(=O)(=O)c2ccc(C#CC3CCCCC3)cc2O[C@H]1CN(C)Cc1cccnc1: inactive
- Cc1cc(-c2c(C)[nH]n(-c3ccc(Cl)cc3)c2=O)n(-c2ccccc2)n1: inactive
- Cc1c(Cl)cccc1Nc1ncccc1C(=O)O: inactive

In: Find the recorded outcome belonging to "O=C(Nc1cc(S(=O)(=O)N2CCOCC2)ccc1Cl)c1cc([N+](=O)[O-])ccc1Cl" and report it.
Out: inactive

In: Name the reported outcome value associated with the compound "CC(=O)c1ccc(N2CCN(S(=O)(=O)c3csc(C(N)=O)c3)CC2)cc1"
Out: inactive

In: Can you share its outcome? I mean this compound: CCCCOc1ccc(C(=O)C(CN2CCOCC2)c2ccccc2)cc1 (stereo not given)
Out: inactive

In: Give its outcome value. Item: "Cc1nc(SCC(=O)NC2CCCC2)[nH]c(=O)c1C"
Out: inactive

In: Query: outcome; subject: CCCCC(C(=O)O)C(C)CC(=O)Nc1nncs1 (stereo not given)
Out: inactive

In: Request the reported outcome associated with "COCCNC(=O)CSc1nc2c(n1-c1ccccc1)CCCC2"
Out: inactive

In: outcome for "CCCc1nc2c(=O)n(C)c(=O)nc-2n(C)n1" ?
Out: inactive

In: # input compound: "C[C@@H]1CN([C@@H](C)CO)C(=O)Cc2cc(NC(=O)CCC(F)(F)F)ccc2O[C@H]1CN(C)S(C)(=O)=O" ; wanted: its outcome
Out: inactive

In: // outcome lookup, key: "O=C(C[C@@H]1CC[C@@H](NC(=O)C2CCC2)[C@H](CO)O1)NCC1CC1"
Out: inactive

In: What measured outcome goes with "CN(C)C(=O)C[C@@H]1CC[C@@H]2[C@H](COC[C@@H](O)CN2C(=O)C2CCOCC2)O1" ?
Out: inactive

In: Suppose we examine the compound COc1ccc(-c2cc(-c3ccccc3)c(C#N)c(S(C)=O)n2)cc1 (stereo not given) ; what outcome value has been reported?
Out: inactive

In: Name the reported outcome value associated with the compound CCOc1ccc(CN2CCNC(=O)C2CC(=O)NCc2ccccn2)cc1 (stereo not given)
Out: inactive

In: Endpoint output: outcome of "COC(=O)[C@@]1(Cc2ccccc2CN=[N+]=[N-])N=C(c2ccc(OCCCO)cc2)O[C@H]1c1ccccc1" . Value?
Out: inactive

In: What value of measured outcome is listed for "CO[C@H]1CN(C)C(=O)c2cc(NC(=O)NC(C)C)ccc2OC[C@H](C)N(Cc2ccc(-c3ccccn3)cc2)C[C@@H]1C" ?
Out: inactive

In: Reported outcome for "N#C[C@@H]1[C@H](c2ccccc2C2=CCCCC2)[C@H](CO)N1C(=O)Cc1ccncc1" : what is it?
Out: inactive

In: For the compound "Cc1cc(C)n(-c2ccc(Cl)c(C(=O)OCC(N)=O)n2)n1" , what outcome is on record?
Out: inactive

In: Given the compound "CCCSc1nnc(Sc2nnnn2-c2ccccc2)s1" , what is its reported outcome?
Out: inactive

In: Please look up its outcome: "C[C@H](CO)N1C[C@H](C)[C@@H](CN(C)C(=O)Nc2ccc(F)cc2)Oc2ncc(C#CC3CC3)cc2C1=O"
Out: inactive

In: # input compound: Cn1c2c(c(=O)n(C)c1=O)C(c1cccc(F)c1)C(C#N)=C(N)O2 (stereo not given) ; wanted: its outcome
Out: inactive

In: Return reported outcome; argument: "COc1cccc(C(=O)Nn2cnnc2)c1OC"
Out: inactive

* * *

Assay: PGC1a acetylation increase, cellular AlphaLISA – cell-based, cherry-picked samples, set 6, dose response (AID 720513);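 also: cells made to overexpress flag tagged PGC1a plus GCN5 acetyltransferase by viral infection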
Details: U2OS PGC1a acetylation AlphaLISA, overnight, 0 = neutral, -100 = inhibitor control; series mostly up to 19.5 µM
Out of some 2,100 compounds screened, about 480 (23%) were called active. About 5% were inconclusive and are not listed. A selection follows. Results with a measured potency or affinity are listed apart.
MEASUREMENT_KIND: outcome

Sample answers from the record:
* Cc1cccc(S(=O)(=O)N(C)C[C@@H]2OCc3cn(nn3)CCCC(=O)N([C@@H](C)CO)C[C@H]2C)c1 | inactive
* CC(C)NC(=O)Nc1ccc2c(c1)C(=O)N([C@@H](C)CO)C[C@H](C)[C@@H](CN(C)C(=O)CCC(F)(F)F)OCCCC[C@@H](C)O2 | inactive
* COc1ccc(C2=NOC(C(=O)Nc3cccnc3)C2)cc1 (centres undefined) | inactive
* Cn1c(=O)c2c(ncn2CC(=O)O)n(C)c1=O | inactive
* C[C@@H]1CN([C@@H](C)CO)C(=O)c2cc(NC(=O)Nc3cccc4ccccc34)ccc2O[C@@H](C)CCCCO[C@H]1CN(C)C(=O)NC1CCCCC1 | inactive

In: Reported outcome, compound "Cc1ccc(CNC(=O)c2ccc(CS(=O)(=O)c3ccccc3)o2)cc1" : ____
Out: inactive

In: Report outcome for Cc1ccc(S(=O)(=O)C(C#N)c2nc3ccccc3nc2N2CCCC2)cc1 (centres undefined) please.
Out: inactive

In: Reported outcome, compound "Cn1ccc2cc(OCc3ccccc3)ccc21" : ____
Out: inactive

In: What value of measured outcome is listed for "C[C@@H]1CN([C@@H](C)CO)S(=O)(=O)c2ccc(-c3ccc(C#N)cc3)cc2O[C@H]1CN(C)C(=O)CN(C)C" ?
Out: inactive

* * *

Assay: PGC1a acetylation increase, cellular AlphaLISA – cell-based, cherry-picked samples, set 6, dose response (AID 720513);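 also: cells made to overexpress flag tagged PGC1a plus GCN5 acetyltransferase by viral infection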
Settings: U2OS PGC1a acetylation AlphaLISA, overnight, 0 = neutral, -100 = inhibitor control; series mostly up to 19.5 µM
The campaign covered roughly 2,100 compounds. About 480 (23%) were called active. About 5% were inconclusive and are not listed. Not all results are given here. Entries with a potency or affinity are not part of this list.
MEASUREMENT_KIND: outcome

# count of solved cases: 8
- COc1cccc(-c2ccc3c(c2)O[C@H](CN(C)Cc2ccncc2)[C@@H](C)CN([C@@H](C)CO)S3(=O)=O)c1: inactive
- C[C@H]1CN([C@@H](C)CO)S(=O)(=O)c2ccc(-c3ccccc3)cc2O[C@@H]1CN(C)Cc1cccc(F)c1: inactive
- Cc1noc(C)c1NC(=O)Nc1ccc2c(c1)C(=O)N([C@H](C)CO)C[C@@H](C)[C@@H](CN(C)S(=O)(=O)c1ccc(F)cc1)OCCCC[C@@H](C)O2: inactive
- CCCCOc1ccc(CNC(=O)NS(=O)(=O)c2ccc(OCC(C)C)cc2)cc1: inactive
- C[C@@H]1CCCCO[C@@H](CN(C)C)[C@@H](C)CN([C@H](C)CO)C(=O)c2cc(NS(=O)(=O)c3ccc(Cl)cc3)ccc2O1: inactive
- CC(C)NC(=O)Nc1ccc2c(c1)C(=O)N([C@@H](C)CO)C[C@@H](C)[C@H](CN(C)C(=O)NC(C)C)OCCCC[C@@H](C)O2: inactive
- Cn1cnc(S(=O)(=O)N2C[C@@H](O)COC[C@H]3O[C@H](CC(=O)NCc4cc(F)cc(F)c4)CC[C@@H]32)c1: inactive
- CN(CC(=O)NCC1CCCO1)S(=O)(=O)c1cc(Cl)ccc1Cl (stereo not given): inactive

In: Sample "COc1ccc(OC)c(Nc2ccc(C(=O)O)cc2[N+](=O)[O-])c1" — what was its outcome?
Out: inactive

In: Need outcome of "O=C(Nc1ccc(CN2CCOCC2)cc1)c1ccc(F)cc1" , thanks.
Out: inactive

In: Given the entry "COc1cccc(NC(=O)c2ccccc2-c2ccccc2C(=O)O)c1" , report its measured outcome.
Out: inactive

In: Dear colleague, I am looking for the recorded outcome of the following molecule: "COCC(=O)Nc1ccc2c(c1)OC[C@@H](C)N(CCc1ccccc1)C[C@H](C)[C@@H](OC)CN(C)C2=O"
Out: inactive

In: # lookup: outcome of "CO[C@H]1CN(C)C(=O)c2ccc(NC(=O)Nc3ccccc3F)cc2OC[C@@H](C)NC[C@@H]1C"
Out: inactive

In: Any idea what its outcome is? The molecule is "C[C@H](CO)N1C[C@H](C)[C@@H](CN(C)Cc2ccc3c(c2)OCO3)Oc2cc(-c3cccc(C(=O)N(C)C)c3)ccc2S1(=O)=O"
Out: inactive

In: Which outcome value is on record for "Cc1ccc(S(=O)(=O)N(C)C[C@H]2Oc3ccc(NC(=O)CCC(F)(F)F)cc3C(=O)N([C@H](C)CO)C[C@@H]2C)cc1" ?
Out: inactive

In: Requested field: outcome. Item: "CC(C)CC#Cc1ccc2c(c1)O[C@@H](CN(C)Cc1ccc3c(c1)OCO3)[C@H](C)CN([C@H](C)CO)S2(=O)=O"
Out: inactive

In: Quick one: outcome of "CCOc1ccccc1CNC(=O)c1cc2oc3ccccc3c2n1C" ?
Out: inactive

In: Given the molecule "CC(C)(C)c1ccc(C(=O)NCCN2CCOCC2)cc1" , what is its reported outcome?
Out: inactive

In: Reported outcome for COc1cccc(N2CCN(c3ncnc4c3[nH]c3ccc(F)cc34)CC2C)c1 (stereo not given) : what is it?
Out: inactive

In: What value of outcome has been recorded for this entry: "Cc1cc(C)c(NC(=O)c2ccc(S(=O)(=O)N(C)C)cc2)c(C)n1"
Out: inactive

In: # outcome lookup, item "CCCN(C)C[C@H]1OCCCC[C@@H](C)Oc2ccc(NS(=O)(=O)c3ccc(Cl)cc3)cc2C(=O)N([C@@H](C)CO)C[C@H]1C"
Out: inactive

In: # lookup: outcome of O=C(COC(=O)C1CC2CCCC(C1)C2=O)Nc1ccc(F)c(Cl)c1 (stereo not given)
Out: inactive
